# Study target: AMP-activated protein kinase, AMPK (Homo sapiens) (UniProt P54646+O43741+P54619+Q9UGJ0+Q9Y478+Q13131+Q9UGI9)
# Protocol: AMP-dependent Kinase enzyme assay. An in vitro enzyme assay that detects ADP turnover that is directly proportional to AMPK activity. This uses naive AMPK that is activated during the assay with MK-8722
# Format: functional
# Set-up: scale not given: direction of the effect not stated beside the values
# Details: 30 µM
Collected Percent Effect values appear next to each entry.

Compound: Cc1nn(CC(C)C)c(N(C)C)c1CNCc1cc2ccccc2[nH]1
Percent Effect, %: -5.31
--
Compound: CCn1cnnc1CNC(=O)N1CCCN(C(C)=O)CC1
Percent Effect, %: -0.601
--
Compound: O=C(NCCNc1ncccn1)C1CCN(c2ncccn2)CC1
Percent Effect, %: -3.16
--
Compound: O=C(Nc1cnn(CCN2CCOCC2)c1)c1ccccc1O
Percent Effect, %: -17.4
--
Compound: O=C(Cn1cc(I)cn1)Nc1cccnc1
Percent Effect, %: 2.58
--
Compound: Cc1ccc(OCCCNC(=O)NC(C)c2nncn2C)cc1 (stereo unspecified)
Percent Effect, %: 6.68

====

Collected Percent Effect values appear next to each entry.
# Study target: Ubiquitin-activating enzyme e1, putative (Leishmania donovani (strain BPK282A1))
# Protocol: Leishmania donovani Ubiquitin Activating Enzyme (LdE1)
# Format: functional
# Set-up: scale not given: direction of the effect not stated beside the values
# Details: 30 µM
Measured potencies and affinities stand elsewhere.

Molecule: COc1ccc(F)c(CN2CCC(c3cc(O)nc(C)n3)C2)c1 (stereo not given)
Study target: Ubiquitin-activating enzyme e1, putative (Leishmania donovani (strain BPK282A1))
Measurement unit: %
Percent Effect: 23

Molecule: O=C(NCCOc1ccc(F)c(F)c1)NCc1cccc(CO)c1
Study target: Ubiquitin-activating enzyme e1, putative (Leishmania donovani (strain BPK282A1))
Measurement unit: %
Percent Effect: 2.7

Molecule: Cc1nc(C)n(C2CCCN(C(=O)c3sccc3C3CC3)C2)n1 (stereo not given)
Study target: Ubiquitin-activating enzyme e1, putative (Leishmania donovani (strain BPK282A1))
Measurement unit: %
Percent Effect: 2.53

Molecule: CN1CCCC(CNC(=O)N2CCN(Cc3ccon3)CC2)C1 (stereo not given)
Study target: Ubiquitin-activating enzyme e1, putative (Leishmania donovani (strain BPK282A1))
Measurement unit: %
Percent Effect: 2.67

Molecule: O=C(c1cccnc1N1CCOCC1)N1CCCC1Cn1cccn1 (stereo not given)
Study target: Ubiquitin-activating enzyme e1, putative (Leishmania donovani (strain BPK282A1))
Measurement unit: %
Percent Effect: 7.79

====

# Study target: Proteasome subunit beta (Trypanosoma cruzi) (UniProt O96673)
# Sequence (whole entry): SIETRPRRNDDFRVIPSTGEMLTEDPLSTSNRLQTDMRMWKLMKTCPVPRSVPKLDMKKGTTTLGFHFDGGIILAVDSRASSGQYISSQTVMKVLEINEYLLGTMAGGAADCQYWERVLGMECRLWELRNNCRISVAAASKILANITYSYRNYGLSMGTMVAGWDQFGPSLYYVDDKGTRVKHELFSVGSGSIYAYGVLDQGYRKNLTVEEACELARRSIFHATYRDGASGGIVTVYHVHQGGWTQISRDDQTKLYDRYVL
# Protocol: Trypanosoma cruzi proteasome chymotrypsin-like activity (TcProtChymo) assay. Also: in the data most compounds retested in dose-response had high values.
# Format: functional
# Design: scale not given: direction of the effect not stated beside the values
# Details: 9.37 µM
So basically: Percent Effect at 10% or higher? That is true (1). Lower than 10%? That is false (0).

Compound: COc1cc(C(=O)N(C2CC2)C2CC(=O)NC2=O)ccc1C (stereo not drawn)
Class assignment: false (0)

Compound: CCCNC(=O)N1CCC(Oc2cc(C)ccc2F)(C(=O)O)CC1
Class assignment: false (0)

Compound: Cn1cnc2c1CCN(CCCOc1ccc(C#N)cc1)C2
Class assignment: false (0)

Compound: Cc1cnn(CCNCc2ccc(C#N)cc2F)c1
Class assignment: false (0)

Compound: CC(C(=O)NCc1cccc(N2CC=CC2)c1)n1cccn1 (stereo not drawn)
Class assignment: false (0)

Compound: COCCN1CCC2(CC1)CC(COC)N(c1ncccn1)C2 (stereo not drawn)
Class assignment: false (0)

Compound: O=C(Cn1ccnc1)N1C[C@@H]2CC[C@H](Oc3ccccc3)[C@@H]2C1
Class assignment: true (1)

Compound: COCC1COCCC12CCN(C(=O)CCc1ccccc1)CC2 (stereo not drawn)
Class assignment: false (0)

Compound: COc1c(CNC2CCN(C(C)(C)C)CC2)c(C(C)C)nn1C
Class assignment: false (0)

Compound: CCn1cnnc1C1CCN(C(=O)c2ccc(C(=O)OC)s2)CC1
Class assignment: false (0)

Compound: CCc1nc(CN(C)C2CCN(Cc3ccc(C#N)cc3F)C2)no1 (stereo not drawn)
Class assignment: true (1)

Compound: NC(=O)N1CC[C@H](O)[C@@H]1Cc1cccnc1
Class assignment: true (1)

Compound: Cc1nc2ccnn2c(C)c1CCC(=O)N1CCC(C(N)=O)CC1
Class assignment: false (0)

Compound: Cc1noc([C@H]2C[C@H]3OCC[C@H]3N(S(=O)(=O)C3CC3)C2)n1
Class assignment: true (1)

Compound: O=C(NCCCN1CCCC1=O)Nc1ccc(Br)cc1Cl
Class assignment: false (0)

Compound: O=C(c1ccc(=O)[nH]n1)N1CC(c2nc(Cc3ccccc3)no2)C1
Class assignment: true (1)

Compound: CC(C)Sc1nnc(CCNC(=O)OC(C)(C)C)o1
Class assignment: true (1)

Compound: CN(C)C(=O)CN(C)C(=O)c1cnc(Cc2ccc(F)cc2)s1
Class assignment: true (1)

Values compiled from ChEMBL document CHEMBL3988442.
